Data origin, for the record: patent US20210403579A1

# target of assay: T1, Mouse ST2 (mouse, UniProt P14719 27-332, limits assumed)
# T1 construct: also called mouse ST2 protein
# T1 sequence (looked up): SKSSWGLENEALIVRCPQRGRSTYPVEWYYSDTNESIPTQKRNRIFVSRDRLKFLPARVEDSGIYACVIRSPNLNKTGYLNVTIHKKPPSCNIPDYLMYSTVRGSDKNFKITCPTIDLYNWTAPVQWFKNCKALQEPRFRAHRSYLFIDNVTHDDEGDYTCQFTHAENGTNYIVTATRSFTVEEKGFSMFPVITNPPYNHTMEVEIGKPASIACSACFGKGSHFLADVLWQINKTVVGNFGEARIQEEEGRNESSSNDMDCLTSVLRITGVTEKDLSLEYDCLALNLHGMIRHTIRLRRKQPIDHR
# measurement protocol: SPR (Carterra), antibody immobilized, ST2 analyte, 1:1
measured quantity: kon (M⁻¹ s⁻¹)
// return numeric value only (unit: M⁻¹ s⁻¹, not printed)

binder | number
Human ST2 IgG1 Antibody 99 (antibody, V domains shown, IgG1, kappa; also called ST2 Antibody 99) VH: EVQLLESGGGLVQPGGSLRLSCAASGFTFSDYYMNWVRQAPGKGLEWVSTISGFGESTFYADSVKGRFTISRDNSKNTLYLQMNSLRAEDTAVYYCARLGAARAFDIWGQGTTVTVSS VL: DIQMTQSPSSLSASVGDRVTITCRASQSIGSWMAWYQQKPGKAPKLLIYAASTLQSGVPSRFSGSGSGTDFTLTISSLQPEDFATYYCQQSYTTPITFGPGTKVDIKR | 230000
Human ST2 IgG1 Antibody 29 (antibody, V domains shown, IgG1, kappa; also called ST2 Antibody 29) VH: QVQLVQSGAEVKKPGASVKVSCKASGGTFTGYFIHWVRQAPGQGLEWMGWMNPNSGNTGYAQKFQGRVTMTRDTSTSTVYMELSSLRSEDTAMYYCAREGQGVVPVDYWGQGTLVTVSS VL: DIQMTQSPSSLSASVGDRVTITCRASQSISSWLAWYQQKPGKAPKLLIYDATNLETGVPSRFSGSGSGTDFTLTISSLQPEDFATYYCLQDYNYPLTFGQSTKVEIKR | 5900
Human ST2 IgG1 Antibody 19 (antibody, V domains shown, IgG1, kappa; also called ST2 Antibody 19) VH: EVQLLESGGGLVQPGGSLRLSCAASGFSFSHAWMSWVRQAPGKGLEWVSVIHSGGSTFYADSVKGRFTISRDNSKNTLYLQMNSLRAEDTAVYYCARIGKGGGFDYWGQGTLVTVSS VL: DIQMTQSPSSLSASVGDRVTITCRASQDIGSWLAWYQQKPGKAPKLLIYAASSLQSGVPSRFSGSGSGTDFTLTISSLQPEDFATYYCQQSYSTPPTFGQGTKVEIKR | 370000

// moving on: another record for kon
stdin: Please report the recorded kon for Human ST2 IgG1 Antibody 63 (antibody, V domains shown, IgG1, kappa; also called ST2 Antibody 63) VH: QVQLVQSGAEVKKPGSSVKVSCKASGGTFSSDAINWVRQAPGQGLEWMGGIVPAFGTANYAQKFQGRVTITADESTSTAYMELSSLRSEDTAVYYCARSSSSWPYYYYYMDVWGKGTTVTVSS VL: DIVMTQSPLSLPVTPGEPASISCRSSQSLLLNNGNNFIDWYLQKPGQSPQLLIYAASILQGGVPDRFSGSGSGTDFTLKISRVEAEDVGVYYCMQALQTPPTFGQGTKVEIKR .
stdout: 62000
